Test system: NCI/ADR-RES ovarian
Test: NCI-60 one-dose screen, 48 h
Settings: 10 µM unless noted
Compounds without any hit were thinned out: in the full panel of roughly 83,000, 20% have a hit. Active and inactive are the calls of the source. Rule for the calls: active = growth percent below 10; inactive = the rest.
Outcome codes: active, inactive

| compound | assigned label |
| --- | --- |
| CC1CCN(C(=O)OCc2nc3nc(Cl)nc(N4CCOCC4)c3[nH]2)CC1 | active |
| O=S(=O)(c1ccc(N/N=C\c2ccccc2)cc1)c1ccc(N/N=C/c2ccccc2)cc1 | inactive |
| CC(C)(C)OC(=O)N1CCN(c2ccc(N)cc2)C(=O)C1 | inactive |
| NC(=O)c1ncn(C2OC(CO)C(O)C2O)n1 (stereo not given) | inactive |
| COc1ccc(-c2nc(SCC(C)C)nc(N/N=C(/C)c3ccc(OC)c(OC)c3)c2C#N)cc1 | inactive |
| CN1CCN(C(=O)[C@]2(C)CC[C@]3(C)CC[C@]4(C)C(=CC(=O)[C@@H]5[C@@]6(C)CCC(=O)NC(C)(C)[C@@H]6CC[C@]54C)[C@@H]3C2)CC1 | inactive |
| CC(=O)OCC(=O)[C@@]1(O)CC[C@H]2[C@@H]3CC(=C(Br)Br)C4=CC(=O)CC[C@]4(C)[C@H]3C(=O)C[C@@]21C | inactive |
| COc1cc(C2CC(c3cccc(Nc4ccncc4)c3)=NN2c2ccccc2)cc(OC)c1OC (stereo not given) | inactive |
| NC(=S)N/N=C(/c1ccccc1)c1ccccc1N | inactive |
| CC1=NNC(=O)C1CCC(=O)N/N=C(\C)c1ccc2ccccc2c1 (stereo not given) | inactive |
| O=C1c2ccccc2-c2c1c1c(NCCCO)nc3ccccc3c1n2Cc1ccccc1 | active |
| COc1cc2nc(Cc3ccc(C)cc3)[nH]c(=O)c2cc1OC | inactive |
| COc1cc2nc(-c3ccc(C(F)(F)F)cc3)cc(OCCN3CCCC3)c2cc1OC | inactive |
| C=C(C)[C@H]1CC/C(C)=C/CC[C@]2(C)O[C@H]2CC/C(COC(=O)[C@@H](OC(C)=O)[C@H](NC(=O)c2ccccc2)c2ccccc2)=C\[C@@H]1O | inactive |
| COc1ccc2nc(N=Nc3c(O)ccc4ccccc34)sc2c1 | active |

====

System: SR leukemia
Experiment: NCI-60 one-dose screen, 48 h (100 = growth as untreated, 0 = no growth, -100 = all killed)
Settings: 10 µM unless noted
This is part of a sample that, as a whole, favours compounds with a hit. Of some 83,000 tested, about 20% had one in any assay.
# strict inequality: growth < 20% yields condition met, everything else yields condition not met

| compound | assigned label |
| --- | --- |
| Cc1cccc(Oc2ccc(Nc3ncnc4ccc(NC(=O)CNCCO)cc34)cc2Cl)c1 | condition met |
| Fc1ccc(C2CC(c3cccc(Nc4ccncc4)c3)=NN2c2cc(Cl)cc(Cl)c2)cc1 (stereo not drawn) | condition met |
| Cc1nc2sc(C(=O)Nc3cccc(Br)c3)c(N)c2cc1C(=O)c1ccc(C(F)(F)F)cc1 | condition not met |
| N/C(=N\N=C\c1cc2ccccc2[nH]1)N/N=C/c1cc2ccccc2[nH]1 | condition met |
| COc1ccc(Cc2nc3cc(OC)c(OC)cc3c(=O)[nH]2)cc1 | condition not met |
| COc1cc2nc(-c3ccc(C(F)(F)F)cc3)cc(OCCN3CCC(O)CC3)c2cc1OC | condition not met |
| CSc1nc(O)c(-c2ccccc2)c(=O)[nH]1 | condition not met |
| COc1ccc(Cn2nc3c(c2-c2cc(OC)c(OC)c(OC)c2)-c2oncc2CC3)cc1 | condition not met |
| CCOC(=O)Oc1c(OC)cc(C(=O)O[C@@H]2C[C@@H]3CN4CCc5c([nH]c6cc(OC)ccc56)[C@H]4C[C@@H]3[C@H](C(=O)OC)[C@H]2OC)cc1OC | condition met |
| C#CC(=O)Nc1cccc(Nc2nc3c(c(NCc4ccccc4)n2)CCCC3)c1 | condition met |
| O=C1C(=O)c2c(nc3ncccn23)-c2ccccc21 | condition met |
| O=C(/C=C\c1ccc(OCCCCCC[P+](c2ccccc2)(c2ccccc2)c2ccccc2)cc1)c1ccc2c(c1)OCCO2 | condition met |
| COc1cc2nc(-c3ccc(C(F)(F)F)cc3)cc(OCCCN3CCC(O)CC3)c2cc1OC | condition met |
| O=C(OC(OC(=O)c1cc(Cl)cc(Cl)c1)c1cccc2ccccc12)c1ccccc1 (stereo not drawn) | condition not met |
| COc1ccc(Cn2nc(-c3ccccc3)c3c2CCc2cnoc2-3)cc1 | condition not met |
| COc1ccc2nc(N=Nc3c(O)ccc4ccccc34)sc2c1 | condition met |
| COc1cc2oc(-c3cccc(C(=O)Nc4ccc(Cl)cc4)c3)cc(=O)c2c(OC)c1OC | condition met |
| CC1(C)CN(c2cnc(C(=O)Nc3cc(F)cc4cccnc34)cn2)CCN1 | condition met |
| Cn1c(=O)c2[nH]c(CCCc3nc4c([nH]3)c(=O)n(C)c(=O)n4C)nc2n(C)c1=O | condition not met |
| C[C@]12C[C@H]1CC[C@]1(C)[C@@H]2CC[C@@]23C[C@H](CC[C@H]21)[C@@](O)(CO)C3 | condition not met |
| COc1ccccc1/C=C1\Oc2cc(OCCCN3CCCC3)ccc2C1=O | condition not met |
| COc1ccc(NC(=O)c2sc3nc(C)c(C(=O)c4ccc(OC)cc4)cc3c2N)cc1 | condition met |
| CCc1c(Nc2ccc(C)cc2)[nH]c(N)nc1=S | condition not met |
| CC[C@H](C)[C@@H]1NC(=O)[C@H](Cc2ccc(O)cc2)N(C)C(=O)[C@H](Cc2ccccc2)NC(=O)CN(C)C(=O)[C@@H]2CCCN2C(=O)[C@@H](Cc2ccccc2)N(C)C(=O)[C@H](CC(C)C)NC1=O | condition met |
| COc1cc2nc(-c3ccc(C(F)(F)F)cc3)cc(OCCN3CCCC3)c2cc1OC | condition not met |
| COc1cccc(NC(=O)c2cccc(-c3cc(=O)c4c(OC)c(OC)c(OC)cc4o3)c2)c1 | condition not met |
| C=C1C(=O)O[C@H]2[C@H]1CC/C(COC(=O)CCCc1c[nH]c3ccccc13)=C\CC[C@@]1(C)O[C@@H]21 | condition met |
| CC(=O)Nc1ccc(C(=O)Nc2cc(-c3ccccc3)ccc2N)cc1 | condition not met |

====

Tested on: MDA-MB-435 melanoma
Assay: NCI-60 one-dose screen, 48 h
Conditions: 10 µM unless noted
This is part of a sample that, as a whole, favours compounds with a hit. Of some 83,000 tested, about 20% had one in any assay. Activity calls are given as the source filed them. How the source made its calls: active means growth percent below 10; inactive means the rest.
Outcome codes: label 1 (active), label 0 (inactive)

| compound | assigned label |
| --- | --- |
| COc1ccc2c(Nc3ccc(NS(C)(=O)=O)cc3)c3ccccc3nc2c1 | label 1 |
| Fc1cc(C2=NNC(c3ccc[nH]3)C2)ccc1-n1ccc(C(F)(F)F)n1 (stereo not drawn) | label 0 |
| CNC(=O)Nc1ccc(-c2nc(N3CCOCC3)nc3c2cnn3C2CCOCC2)cc1 | label 1 |

====

Tested on: UACC-62 melanoma
Experiment: NCI-60 one-dose screen, 48 h (100 = growth as untreated, 0 = no growth, -100 = all killed)
Details: 10 µM unless noted
About 83,000 compounds went through this panel and 20% of them were active in at least one assay; those are over-represented in the sample as a whole. Activity calls are given as the source filed them. How the source made its calls: active means growth percent below 10; inactive means the rest.
readout: growth

| compound | target desc | readout | observed measurement |
| --- | --- | --- | --- |
| CC(C)Sc1nc(NN)c(C#N)c(-c2ccccc2)n1 | UACC-62 melanoma | growth | 90.6% (inactive) |
| CC(=O)N1N=C(c2cccc(Nc3ccncc3)c2)CC1c1ccc2c(c1)OCO2 (configuration not stated) | UACC-62 melanoma | growth | 91.9% (inactive) |
| Cn1c(COC(=O)NCCN2CCOCC2)nc2c(N3CCOCC3)nc(-c3ccccc3)nc21 | UACC-62 melanoma | growth | -93.6% (active) |
| COc1cc2nc(-c3ccc(C(F)(F)F)cc3)cc(OCCCN3CCCCC3)c2cc1OC | UACC-62 melanoma | growth | -34.7% (active) |
| COc1cc(CCNc2nc3cc(N)cc(N)c3nc2-c2ccccc2)cc(OC)c1 | UACC-62 melanoma | growth | -22.3% (active) |
| O=C(CCN1CCCC1)Nc1ccc2c(NCc3ccc(F)cc3)c3ccccc3nc2c1 | UACC-62 melanoma | growth | 1.75% (active) |
| NC(=O)CN1CCN(c2ccccc2Cl)CC1 | UACC-62 melanoma | growth | 113% (inactive) |
| CC(=O)OCC(=O)C1(O)C(C)CC2C3C=C(C)C4=Cc5c(cnn5-c5ccccc5)CC4(C)C3C(O)CC21C (configuration not stated) | UACC-62 melanoma | growth | -26.6% (active) |
| CCCCCOc1ccc(/C=N/Nc2cc(C)nc3ccc(Br)cc23)cc1 | UACC-62 melanoma | growth | 93.2% (inactive) |
| O=C(Nc1ccc2cc3ccc(NC(=O)NC4CCCCC4)cc3nc2c1)NC1CCCCC1 | UACC-62 melanoma | growth | 87.8% (inactive) |
| CN1CCN(c2cnc(C(=O)Nc3cc(F)cc4cccnc34)cn2)CC1 | UACC-62 melanoma | growth | 95.3% (inactive) |
| COc1ccc(C2CC(c3cccc(Nc4ccncc4)c3)=NN2c2ccc(Cl)cc2)cc1 (configuration not stated) | UACC-62 melanoma | growth | 97% (inactive) |
